# maps each entry to its inhibition at 10 µM
TESTED_TARGET: PDGF-receptor beta enzyme comprising the tyrosine kinase domain (Homo sapiens)
Construct: from amino acid 545 to 1106 of GenBank Access NO: AAA36427
ASSAY_METHOD_TEXT: Inhibition of PDGF-receptor kinase activity (cell-free, PLC1 peptide, 33P Flashplate)
Type: biochemical
SETUP_CONDITIONS: PDGF-R kinase activity; compound at 10 uM; read-out: Percent Inhibition @ 10 uM

# COMPOUND, inhibition at 10 µM [%]
data = [
    ("COc1cc2c(cc1OCC(O)CO)Cc1c-2n[nH]c1NCc1c(F)cccc1F (stereo not drawn)", 100),
    ("COCCCOc1cc2c(cc1OC)-c1n[nH]c(Nc3cccc(OC)c3)c1C2", 101),
    ("CCOc1cc2c(cc1OCC)-c1n[nH]c(NCc3ccccc3OC(F)(F)F)c1C2", 72),
]

====

TESTED_TARGET: PDGF-receptor beta enzyme comprising the tyrosine kinase domain (Homo sapiens, UniProt P09619)
Construct: from amino acid 545 to 1106 of GenBank Access NO: AAA36427
Sequence (P09619 545-1106): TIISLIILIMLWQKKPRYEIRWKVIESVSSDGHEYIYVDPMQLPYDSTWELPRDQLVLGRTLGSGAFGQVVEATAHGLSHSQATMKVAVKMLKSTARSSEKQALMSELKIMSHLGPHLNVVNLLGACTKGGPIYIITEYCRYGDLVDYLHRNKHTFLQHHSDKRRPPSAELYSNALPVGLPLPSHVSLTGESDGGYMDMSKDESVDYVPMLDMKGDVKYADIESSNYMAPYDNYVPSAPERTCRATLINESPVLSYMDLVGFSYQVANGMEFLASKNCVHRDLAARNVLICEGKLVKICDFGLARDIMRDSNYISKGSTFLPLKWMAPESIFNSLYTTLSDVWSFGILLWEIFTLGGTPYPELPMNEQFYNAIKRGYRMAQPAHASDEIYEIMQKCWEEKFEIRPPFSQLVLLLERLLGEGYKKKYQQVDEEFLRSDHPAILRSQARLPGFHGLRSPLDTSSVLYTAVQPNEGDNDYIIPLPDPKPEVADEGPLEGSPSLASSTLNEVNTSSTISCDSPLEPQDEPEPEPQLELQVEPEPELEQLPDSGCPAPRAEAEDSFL
ASSAY_METHOD_TEXT: Inhibition of PDGF-receptor kinase activity (cell-free, PLC1 peptide, 33P Flashplate)
Assay type: biochemical
SETUP_CONDITIONS: PDGF-R kinase activity; compound at 10 uM; read-out: Percent Inhibition @ 10 uM
Protocol: PDGF-R kinase activity was assayed by its ability to phosphorylate one of its target proteins, PLCγ, in a cell-free system, in particular, a PLC1 peptide comprising the tyrosine residue where the phosphorylation occurs was used for the assay. […] In order to test the potency of inhibition of present compounds, an IC50 for an individual compound was measured using the above procedure. […]

# COMPOUND, UNITS_SYMBOL, inhibition at 10 µM
data = [
    ("COC(=O)C(NC(=O)n1nc2c(c1Nc1cccc(F)c1)Cc1cc(OC)c(OC)cc1-2)C(C)C (stereo not drawn)", "%", 71),
    ("COc1cc2c(cc1OC)-c1n[nH]c(Nc3ncccc3Br)c1C2", "%", 82.5),
    ("COc1ccc(Nc2[nH]nc3c2Cc2c(C)cccc2-3)c(OC)c1", "%", 50),
    ("CCOc1cc2c(cc1OCC)C(C)c1c-2n[nH]c1Nc1cccc(Br)c1 (stereo not drawn)", "%", 98),
    ("COc1cc2c(cc1OC)-c1c(c(Nc3cccc(F)c3)nn1C(=O)CC(=O)N1CCCC1)C2", "%", 88),
    ("CCOc1cc2c(cc1OCC)-c1n[nH]c(NCc3ccccc3)c1C2", "%", 86),
    ("c1ccc(Nc2[nH]nc3c2CCOc2ccccc2-3)cc1", "%", 23),
    ("CCC1c2cc(OC)c(OC)cc2-c2nn(C(=O)COC)c(Nc3cccc(Br)c3)c21 (stereo not drawn)", "%", 90),
    ("COc1cccc2c1Cc1c-2n[nH]c1Nc1ccc(F)cc1", "%", 96.5),
    ("COc1ccc2c(c1)-c1n[nH]c(Nc3ccccc3)c1C2", "%", 92),
    ("Brc1cccc(Nc2[nH]nc3c2Cc2c(OCCN4CCCC4)cccc2-3)c1", "%", 93.5),
    ("Cc1cccc2c1Cc1c-2n[nH]c1Nc1ccc(OC(F)(F)F)cc1", "%", 36),
]

====

# maps each entry to its IC50
TESTED_TARGET: PDGF-receptor beta enzyme comprising the tyrosine kinase domain (Homo sapiens, UniProt P09619)
Construct: from amino acid 545 to 1106 of GenBank Access NO: AAA36427
ASSAY_METHOD_TEXT: Inhibition of PDGF-receptor kinase activity (cell-free, PLC1 peptide, 33P Flashplate)
Assay type: biochemical
SETUP_CONDITIONS: PDGF-R kinase activity; read-out: IC50
Description: PDGF-R kinase activity was assayed by its ability to phosphorylate one of its target proteins, PLCγ, in a cell-free system, in particular, a PLC1 peptide comprising the tyrosine residue where the phosphorylation occurs was used for the assay. […] In order to test the potency of inhibition of present compounds, an IC50 for an individual compound was measured using the above procedure. […]
ASSAY_METRIC: IC50

# COMPOUND, ASSAY_METRIC, EXPERIMENTAL_RESULT
measured = [
    ("COc1cc2c(cc1OC)-c1n[nH]c(NCc3cccc(Cl)c3Cl)c1C2 [Compound 326]", "IC50", "267 nM"),
    ("COc1cc2c(cc1OC)-c1n[nH]c(Nc3ccc4c(c3)OCO4)c1C2 [Compound 62]", "IC50", "313 nM"),
    ("COc1cc2c(cc1OC)-c1n[nH]c(Nc3cccc(C(F)(F)F)c3)c1C2 [Compound 26]", "IC50", "37 nM"),
    ("Fc1ccc(F)c(Nc2[nH]nc3c2Cc2cc(Br)ccc2-3)c1 [Compound 153]", "IC50", "1030 nM"),
    ("CC1c2ccccc2-c2n[nH]c(Nc3ccc(F)cc3)c21 (stereo not shown) [Compound 106]", "IC50", "1050 nM"),
    ("COCCCOc1cc2c(cc1OC)-c1n[nH]c(Nc3cccc(OC)c3)c1C2 [Compound 244]", "IC50", "0.2 nM"),
    ("COc1cc2c(cc1OC)-c1n[nH]c(Nc3cccc(C(N)=O)c3)c1C2 [Compound 116]", "IC50", "5.3 nM"),
    ("CCOc1cccc(Nc2[nH]nc3c2Cc2cc(OCCCO)c(OC)cc2-3)c1 [Compound 376]", "IC50", "9.1 nM"),
    ("Oc1cc2c(cc1O)-c1n[nH]c(Nc3cccc(F)c3)c1C2 [Compound 362]", "IC50", "784 nM"),
    ("COc1cc2c(cc1OC)C(C)c1c-2n[nH]c1Nc1cccc(F)c1 (stereo not shown) [Compound 249]", "IC50", "6 nM"),
    ("COc1cc2c(cc1OC)C(C)c1c-2n[nH]c1Nc1cccc(SC)c1 (stereo not shown) [Compound 255]", "IC50", "162 nM"),
    ("CN(C)CCCOc1ccc2c(c1)Cc1c-2n[nH]c1Nc1ccc(OC(F)(F)F)cc1 [Compound 217]", "IC50", "3480 nM"),
    ("COCCCOc1ccc2c(c1)Cc1c-2n[nH]c1Nc1cccc(F)c1 [Compound 138]", "IC50", "301 nM"),
    ("COCCCOc1cc2c(cc1OCCCOC)-c1n[nH]c(Nc3cccc(OC)c3)c1C2 [Compound 284]", "IC50", "5.09 nM"),
    ("Cc1ccc2c(c1)-c1n[nH]c(Nc3cccc(F)c3)c1C2 [Compound 182]", "IC50", "5 nM"),
    ("COc1cc2c(cc1OCCCN1CCCC1)Cc1c-2n[nH]c1Nc1cccc(F)c1 [Compound 180]", "IC50", "13.3 nM"),
]

====

TESTED_TARGET: PDGF-receptor beta enzyme comprising the tyrosine kinase domain (Homo sapiens, UniProt P09619)
Construct: from amino acid 545 to 1106 of GenBank Access NO: AAA36427
ASSAY_METHOD_TEXT: Inhibition of PDGF-receptor kinase activity (cell-free, PLC1 peptide, 33P Flashplate)
Format: biochemical
SETUP_CONDITIONS: PDGF-R kinase activity; compound at 10 uM; read-out: Percent Inhibition @ 10 uM
# maps each entry to its inhibition at 10 µM

# MOLECULE, UNITS_SYMBOL, inhibition at 10 µM
rows = [
    ("COc1ccc2c(c1)Cc1c-2n[nH]c1Nc1ccccc1", "%", 92),
    ("COc1cc2c(cc1OC)-c1n[nH]c(Nc3ccc(F)cc3)c1C2", "%", 91),
    ("COc1cc2c(cc1OC)C(C)c1c-2n[nH]c1Nc1ccc(F)c(Cl)c1 (centres unmarked)", "%", 88),
    ("c1ccc(Nc2[nH]nc3c2CCc2ccccc2-3)cc1", "%", 88),
    ("COc1cc2c(cc1OC)-c1n[nH]c(NCc3ccccn3)c1C2", "%", 89),
]

====

TESTED_TARGET: PDGF-receptor beta enzyme comprising the tyrosine kinase domain (Homo sapiens, UniProt P09619)
Construct: from amino acid 545 to 1106 of GenBank Access NO: AAA36427
ASSAY_METHOD_TEXT: Inhibition of PDGF-receptor kinase activity (cell-free, PLC1 peptide, 33P Flashplate)
Assay type: biochemical
SETUP_CONDITIONS: PDGF-R kinase activity; read-out: IC50
Protocol: PDGF-R kinase activity was assayed by its ability to phosphorylate one of its target proteins, PLCγ, in a cell-free system, in particular, a PLC1 peptide comprising the tyrosine residue where the phosphorylation occurs was used for the assay. […] In order to test the potency of inhibition of present compounds, an IC50 for an individual compound was measured using the above procedure. […]
pIC50: −log10 of the molar value.
# maps each entry to its pIC50

# COMPOUND, pIC50
data = [
    ("COc1cccc(Nc2n[nH]c3c2Cc2c-3cc(OC)c3oc(C)nc23)c1", 7.61),
    ("OCC(O)COc1cccc2c1Cc1c-2n[nH]c1Nc1cccc(F)c1 (stereo not drawn)", 6.80),
    ("COc1ccc(Cl)cc1Nc1[nH]nc2c1Cc1cc(OC)c(OC)cc1-2", 5.08),
    ("CCOc1cccc(Nc2[nH]nc3c2C(C)c2cc(OC)c(OC)cc2-3)c1 (single isomer, unassigned) [Compound 554]", 7.68),
    ("CCOc1cccc(Nc2[nH]nc3c2C(C)c2cc(OCC)c(OCC)cc2-3)c1 (stereo not drawn)", 6.85),
    ("COc1cc2c(cc1OCCCO)Cc1c-2n[nH]c1NCc1c(F)cccc1F", 8.39),
]
